Test: Toxicity in pentyl PABC-doxazolidine-treated NOD/SCID mouse xenografted with human HepG2 cells expressing CES2 gene assessed as mortality rate at 5 mg/kg, iv administered on day 45 after tumor implantation
Format: organism-based
Set-up: dose 5 mg/kg, route intravenous
Conditions: in vivo, read-out: Activity
measure-name: mortality (%)

>>> measured("CCCCCOC(=O)Nc1ccc(COC(=O)N2CO[C@@H]3[C@H](C)O[C@@H](O[C@H]4C[C@](O)(C(=O)CO)Cc5c(O)c6c(c(O)c54)C(=O)c4c(OC)cccc4C6=O)C[C@@H]32)cc1")
60

---

Assay: Toxicity in NOD/SCID mouse xenografted with human HepG2 cells expressing CES2 gene assessed as mortality rate at 3 mg/kg, iv administered on day 7, 14 and 21 after tumor implantation
Assay type: organism-based
Parameters: dose 3 mg/kg, route intravenous
Conditions: in vivo, read-out: Activity
measure-name: mortality (%)

>>> measured("COc1cccc2c1C(=O)c1c(O)c3c(c(O)c1C2=O)C[C@@](O)(C(=O)CO)C[C@@H]3O[C@H]1C[C@H](N)[C@H](O)[C@H](C)O1 [DOXORUBICIN]")
70

Value source: ChEMBL document CHEMBL1153806
